B1: DYRK1B (parent)
chain: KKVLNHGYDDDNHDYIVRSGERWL

variants of: B1; test: protein stability index of a GFP-peptide fusion (GPS, HEK-293T) (PSI 1-6); higher = more stable; settings: c terminus: a fixed tail appended;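 note: lentivirally expressed fusions sorted by FACS into six bins by GFP to DsRed ratio, PSI derived from sequencing read proportions per bin multiplied by bin number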
readout.kind: protein stability index
Give bare numbers.

Previously resolved entries follow.
mutation.id	protein stability index
H13L	2.59
L24N	3.75
G7Y	2.93
H13E	4.24
D11E	3.18
H13R	3.77

Please give protein stability index, item by item, for the list that follows.
1. L24P
2. D11T
3. L4D
4. K2M

Resp:
1: 3.82; 2: 2.75; 3: 4.28; 4: 2.86

Req: # query: protein stability index of entry D14A
Resp: 2.78
